protocol.details: in vivo
test.settings: female, SD, rat
outcome.measure: AUC(0-t) (ng·h/mL)

compound.structure | observed.result
Nc1ccc(O)c(C(=O)O)c1 | 38900

====

protocol.details: Pharmacokinetics of montelukast with and without sMAP
test.settings: male, SD, rat, plasma, 0.2 mg

molecule | uom | half-life
CC(C)(O)c1ccccc1CC[C@@H](SCC1(CC(=O)O)CC1)c1cccc(/C=C/c2ccc3ccc(Cl)cc3n2)c1 [Montelukast, montelukast sodium] | min | 108

====

protocol.details: Pharmacokinetics of montelukast with and without sMAP
test.settings: female, SD, rat, plasma, 0.2 mg

compound | AUC(0-t) (ng·h/mL)
CC(C)(O)c1ccccc1CC[C@@H](SCC1(CC(=O)O)CC1)c1cccc(/C=C/c2ccc3ccc(Cl)cc3n2)c1 [Montelukast, montelukast sodium] | 229

Measured values drawn from patent US20230331792A1 for this set.
